System: Mannheimia haemolytica MH 13093 (XB0472-6014.1)
Experiment: MIC, broth-microdilution (CLSI), strain MH 13093
Type: cell-based
Details: Mannheimia haemolytica XB0472-6014.1, BRD field isolate
Experimental: The Minimum inhibitory concentrations (MIC) of compounds according to the invention for a number of veterinary bacterial pathogens were determined by the broth-microdilution method according to CLSI document VETO 1-A4. Microdilution trays containing a doubling dilution series of the test compound were used for the tests. […] The lowest concentration of compound at which no visible growth (i.e. no turbidity) detected by the unaided eye was recorded as the MIC.
For each record, write down the corresponding MIC MH 13093.
Numbers only, in µM.

Recorded MIC MH 13093, per entry:
{"MOLECULE": "CNC(=O)C(NC(=O)c1ccc(C#Cc2ccc(CNCc3ccco3)cc2)cc1)C(=O)NO (stereo not drawn)", "PROPERTY_NAME": "MIC MH 13093", "TEST_RESULT": 0.8}
{"MOLECULE": "CNC(=O)C(NC(=O)c1ccc(C#Cc2ccc(CNC3CCC3)cc2)cc1)C(=O)NO (stereo not drawn)", "PROPERTY_NAME": "MIC MH 13093", "TEST_RESULT": 6.3}
{"MOLECULE": "CNC(=O)C(NC(=O)c1ccc(C#Cc2ccc(CNCc3ccc(OC)cc3)cc2)cc1)C(=O)NO (stereo not drawn)", "PROPERTY_NAME": "MIC MH 13093", "TEST_RESULT": 1.6}
{"MOLECULE": "CNC(=O)C(NC(=O)c1ccc(C#Cc2ccc(CNCc3ccnc(Cl)c3)cc2)cc1)C(=O)NO (stereo not drawn)", "PROPERTY_NAME": "MIC MH 13093", "TEST_RESULT": 0.4}
{"MOLECULE": "C#CCNCc1ccc(C#Cc2ccc(C(=O)N(C)C(C(=O)NC)C(=O)NO)cc2)cc1 (stereo not drawn)", "PROPERTY_NAME": "MIC MH 13093", "TEST_RESULT": 1.6}

# batch size: 3; output MIC MH 13093 per entry
1. CNC(=O)C(NC(=O)c1ccc(C#Cc2ccc(CNCc3ccccn3)cc2)cc1)C(=O)NO (stereo not drawn)
2. CCCNCc1ccc(C#Cc2ccc(C(=O)NC(C(=O)NC)C(=O)NO)cc2)cc1 (stereo not drawn)
3. CNC(=O)C(NC(=O)c1ccc(C#Cc2ccc(CNC3CCCC3)cc2)cc1)C(=O)NO (stereo not drawn)

Response given:
0.8
1.6
12.5

# batch size: 4; output MIC MH 13093 per entry
1. CNC(=O)C(C(=O)NO)N(C)C(=O)c1ccc(C#Cc2ccc(CNC3CCCC3)cc2)cc1 (stereo not drawn)
2. CNC(=O)C(C(=O)NO)N(C)C(=O)c1ccc(C#Cc2ccc(CNCCOC)cc2)cc1 (stereo not drawn)
3. CNC(=O)C(NC(=O)c1ccc(C#Cc2ccc(CN3CCCC3)cc2)cc1)C(=O)NO (stereo not drawn)
4. CNC(=O)C(NC(=O)c1ccc(C#Cc2ccc(CNCC(F)(F)F)cc2)cc1)C(=O)NO (stereo not drawn)

Response given:
[25, 12.5, 6.3, 0.2]

# batch size: 6; output MIC MH 13093 per entry
1. CNC(=O)C(NC(=O)c1ccc(C#Cc2ccc(CNC3CC3)cc2)cc1)C(=O)NO (stereo not drawn)
2. C=CCNCc1ccc(C#Cc2ccc(C(=O)NC(C(=O)NC)C(=O)NO)cc2)cc1 (stereo not drawn)
3. CNC(=O)C(C(=O)NO)N(C)C(=O)c1ccc(C#Cc2ccc(CN3CCOCC3)cc2)cc1 (stereo not drawn)
4. CNC(=O)C(NC(=O)c1ccc(C#Cc2ccc(CNCc3cccs3)cc2)cc1)C(=O)NO (stereo not drawn)
5. C#CCNCc1ccc(C#Cc2ccc(C(=O)NC(C(=O)NC)C(=O)NO)cc2)cc1 (stereo not drawn)
6. CNC(=O)C(C(=O)NO)N(C)C(=O)c1ccc(C#Cc2ccc(CNCc3nccs3)cc2)cc1 (stereo not drawn)

Response given:
1.6
1.6
3.1
0.2
0.4
12.5
